Listed binders paired with reported koff
- TEST SYSTEM: T1, native human ApoC3 (human, UniProt P02656 21-99, biotinylated in the captured-antigen assays (Tables 6 and 8); sites not stated)
- T1 construct: also called nhuApoC3; native huApoC3
- T1 sequence (P02656 21-99): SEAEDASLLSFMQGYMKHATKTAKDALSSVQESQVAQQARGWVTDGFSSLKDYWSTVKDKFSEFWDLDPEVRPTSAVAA
- ASSAY DETAILS: SPR, antigen immobilized on CM5 chip, IgG as analyte, pH 7.4
Give the number; s⁻¹ is assumed, so skip it.

Bench note: what koff did 29F10 IgG (antibody, V domains shown) VH: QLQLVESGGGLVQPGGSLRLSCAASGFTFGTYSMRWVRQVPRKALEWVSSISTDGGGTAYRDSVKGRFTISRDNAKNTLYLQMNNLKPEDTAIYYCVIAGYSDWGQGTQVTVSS VL: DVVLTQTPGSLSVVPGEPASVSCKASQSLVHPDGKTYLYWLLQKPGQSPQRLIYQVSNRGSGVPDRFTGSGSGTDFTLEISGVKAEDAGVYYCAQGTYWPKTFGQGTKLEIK show?
2.4e-05

Same again, this time with 29A06 IgG (antibody, V domains shown) VH: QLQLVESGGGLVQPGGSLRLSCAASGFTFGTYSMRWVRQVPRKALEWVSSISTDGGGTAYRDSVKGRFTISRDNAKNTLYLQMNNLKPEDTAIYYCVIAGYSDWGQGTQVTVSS VL: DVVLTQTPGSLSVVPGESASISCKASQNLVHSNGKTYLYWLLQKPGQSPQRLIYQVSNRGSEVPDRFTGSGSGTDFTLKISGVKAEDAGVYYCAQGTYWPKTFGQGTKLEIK
6.5e-05

Quick one: 29G02 IgG (antibody, V domains shown) VH: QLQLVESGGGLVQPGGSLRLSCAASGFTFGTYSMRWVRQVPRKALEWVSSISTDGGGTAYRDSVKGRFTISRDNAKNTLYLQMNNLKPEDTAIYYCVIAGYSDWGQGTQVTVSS VL: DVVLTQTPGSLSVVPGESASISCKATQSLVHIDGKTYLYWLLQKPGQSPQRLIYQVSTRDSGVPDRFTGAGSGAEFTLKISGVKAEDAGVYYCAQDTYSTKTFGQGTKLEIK
1.6e-05

// next record 29A05 IgG (antibody, V domains shown) VH: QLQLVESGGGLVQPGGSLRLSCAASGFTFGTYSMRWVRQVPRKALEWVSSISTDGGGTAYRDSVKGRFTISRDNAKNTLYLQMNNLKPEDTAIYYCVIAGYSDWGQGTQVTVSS VL: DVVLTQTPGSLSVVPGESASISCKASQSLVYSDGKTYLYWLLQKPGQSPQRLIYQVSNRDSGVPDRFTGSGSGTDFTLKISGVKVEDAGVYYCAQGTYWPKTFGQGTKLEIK
8.2e-05
